src = patent US5721266A

study target: [35S]abl SH-2 / activated EGF receptor (Homo sapiens)
Construct: containing the SH-2 domain of abl; made in house; host or cells: abl SH-2 fusion: bacteria, labelled in vivo with 35S; EGFR partner: EGF-treated 3T3 cells transfected with human EGFR, immunoprecipitated
Sequence (P00519 127-217 limits assumed): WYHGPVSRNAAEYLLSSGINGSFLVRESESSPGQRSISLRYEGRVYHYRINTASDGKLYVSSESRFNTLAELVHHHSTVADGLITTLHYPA
procedure text: in vitro inhibition of [35S]abl SH-2 interactions with activated EGF receptor
Type: binding
conditions: [35S]abl SH-2 binding to activated EGF receptor; values in nM; read-out: IC50
property: IC50 (nM)

compound	IC50 / nM
C(CCCCCNC1=NCCN1C1=NCCN1)CCCCNC1=NCCN1C1=NCCN1 [Compound A, dihydroiodide]	50

1 = C(CCCCCNC1=NCCN1C1=NCCN1)CCCCCNC1=NCCN1C1=NCCN1 [dihydroiodide]
2 = C(CCCNC1=NCCN1C1=NCCN1)CCNC1=NCCN1C1=NCCN1 [dihydroiodide]
Asked: Which shows the larger IC50 value: 1 or 2 ? Your answer should be the label attached to the chosen record.
Given back: 1
